Origin of measurements: patent US6825348B2

# ASSAYED SYSTEM: HSV thymidine kinase (Human herpesvirus 1, UniProt P0DTH5)
# Sequence (P0DTH5 whole entry, looked up): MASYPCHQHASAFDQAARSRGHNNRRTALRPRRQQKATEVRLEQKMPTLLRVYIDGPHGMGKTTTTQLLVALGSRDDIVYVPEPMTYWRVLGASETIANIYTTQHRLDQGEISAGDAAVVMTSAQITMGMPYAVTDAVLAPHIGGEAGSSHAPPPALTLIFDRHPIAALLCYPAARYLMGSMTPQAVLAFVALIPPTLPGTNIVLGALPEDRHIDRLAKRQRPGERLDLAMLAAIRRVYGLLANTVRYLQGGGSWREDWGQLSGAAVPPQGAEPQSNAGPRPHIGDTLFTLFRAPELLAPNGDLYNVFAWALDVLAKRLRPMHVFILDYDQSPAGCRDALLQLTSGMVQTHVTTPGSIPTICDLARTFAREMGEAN
# ASSAY OVERVIEW: Phosphorylation of nucleosides by HSV thymidine kinase
# Format: biochemical
RECORDED METRIC: rel. Vmax, HSV thymidine kinase
I only need the number, thanks.

QUERY: Consider the molecule Nc1nc2c(ncn2COCCO)c(=O)[nH]1 [acyclovir 2, 9-[(2-hydroxyethoxy)methyl]guanine, reference compound] and give its measured rel. Vmax, HSV thymidine kinase.
RESULT: 39.2

QUERY: Entry Nc1nc2ncn(COCCO)c2c(=O)[nH]1 [Compound 9, 7-[(2-Hydroxyethoxy)methyl]guanine] has what rel. Vmax, HSV thymidine kinase?
RESULT: 28.0

---

# ASSAYED SYSTEM: calf mucosal adenosine deaminase (ADA, EC 3.5.4.4) (Bos taurus)
# Sequence (P56658 1-363): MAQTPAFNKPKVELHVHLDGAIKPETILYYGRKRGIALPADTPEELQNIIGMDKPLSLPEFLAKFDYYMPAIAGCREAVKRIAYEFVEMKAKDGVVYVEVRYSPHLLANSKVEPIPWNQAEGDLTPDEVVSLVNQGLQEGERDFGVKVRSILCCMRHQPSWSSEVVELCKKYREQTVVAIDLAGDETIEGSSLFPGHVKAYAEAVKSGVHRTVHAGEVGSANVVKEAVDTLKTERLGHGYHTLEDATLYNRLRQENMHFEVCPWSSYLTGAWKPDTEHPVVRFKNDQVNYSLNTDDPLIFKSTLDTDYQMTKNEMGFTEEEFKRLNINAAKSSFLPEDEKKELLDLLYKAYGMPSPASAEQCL
RECORDED METRIC: Ki

QUERY: Can you look up the measured Ki of Nc1ncnc2ncn(CCOCP(=O)(O)O)c12 [Compound 20, 7-[2-(Phosphonomethoxy)ethyl]adenine] for me?
RESULT: > 800 µM

QUERY: Param item = Nc1ncnc2c1ncn2CCOCP(=O)(O)O [PMEA 4, 9-[2-(phosphonomethoxy)ethyl]adenine, reference compound] ; retrieve measured Ki.
RESULT: > 800 µM

QUERY: // returns reported Ki for input Nc1ncnc2c1ncn2[C@@H]1O[C@H](COP(=O)(O)O)[C@@H](OP(=O)(O)COCCn2cnc3ncnc(N)c32)[C@H]1O
RESULT: 99.7 µM

QUERY: Could you tell me which Ki is on file for Nc1ncnc2c1ncn2COCCO [Compound 1, 9-[(2-Hydroxyethoxy)methyl]adenine, reference compound] ?
RESULT: 141 µM

QUERY: So what's the measured Ki for this one? Nc1ncnc2ncn(COCCO)c12 [Compound 14, 7-[(2-Hydroxyethoxy)methyl]adenine]
RESULT: 8.3 µM

---

# Test system: thymidine kinase-deficient (TK−) varicella-zoster virus (YS/R)
# ASSAY OVERVIEW: microbe, parasite or virus in culture
# Format: cell-based
# MEASUREMENT CONDITIONS: Human alphaherpesvirus 3, Vero, read-out: IC50 TK−VZV (YS/R)
RECORDED METRIC: IC50 (µg/mL)
Write the answer as a number in µg/mL, unit excluded.

QUERY: Reported IC50, compound COC1=C(OC)/C(=C/COP(=O)(O)COCCn2cnc3c(N)ncnc32)OC1=O : ____
RESULT: 2.4

QUERY: If you can, please state the reported IC50 value of COC1=C(OC)/C(=C/COP(=O)(O)OC[C@H]2O[C@@H](n3cnc4c(N)ncnc43)[C@H](O)[C@@H]2OP(=O)(O)COCCn2cnc3ncnc(N)c32)OC1=O .
RESULT: 2

QUERY: Can you share its IC50? I mean this compound: Nc1nc2ncn(COCCO)c2c(=O)[nH]1 [Compound 9, 7-[(2-Hydroxyethoxy)methyl]guanine]
RESULT: 38

QUERY: # query: IC50 of entry Nc1nc2c(ncn2CCOCP(=O)(O)O)c(=O)[nH]1 [PMEG 27, 9-[2-(phosphonomethoxy)ethyl]guanine, reference compound]
RESULT: 0.06

QUERY: Which IC50 is reported for this compound? Nc1ncnc2c1ncn2COCCO [Compound 1, 9-[(2-Hydroxyethoxy)methyl]adenine, reference compound]
RESULT: 9

QUERY: Data request, read-out IC50, for Nc1ncnc2ncn(COCCO)c12 [Compound 14, 7-[(2-Hydroxyethoxy)methyl]adenine]
RESULT: 0.97

QUERY: Could you tell me which IC50 is on file for Nc1ncnc2c1ncn2[C@@H]1O[C@H](COP(=O)(O)O)[C@@H](OP(=O)(O)COCCn2cnc3ncnc(N)c32)[C@H]1O ?
RESULT: 4.2

QUERY: GET /values?readout=IC50&item= Nc1ncnc2ncn(CCOCP(=O)(O)O)c12 [Compound 20, 7-[2-(Phosphonomethoxy)ethyl]adenine]
RESULT: 8
